Assign IC50 to each entry below.
Molecular target: human p38α (Homo sapiens (Human))
Sequence (Q16539 whole entry): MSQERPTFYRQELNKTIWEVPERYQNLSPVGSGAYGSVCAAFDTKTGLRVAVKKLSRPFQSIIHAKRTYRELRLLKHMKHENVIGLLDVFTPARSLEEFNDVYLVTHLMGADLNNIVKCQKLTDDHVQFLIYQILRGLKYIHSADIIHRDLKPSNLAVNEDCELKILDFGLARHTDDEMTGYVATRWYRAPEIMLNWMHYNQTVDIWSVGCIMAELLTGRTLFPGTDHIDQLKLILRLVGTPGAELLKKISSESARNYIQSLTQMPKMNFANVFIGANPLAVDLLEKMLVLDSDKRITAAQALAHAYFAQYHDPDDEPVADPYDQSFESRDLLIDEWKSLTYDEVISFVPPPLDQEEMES
Assay: Purified and activated recombinant human p38α HTRF assay
Settings: 50 μM ATP, read-out: p38a IC50
Unit nM implied. Number only.

Problem: GET /values?readout=IC50&item= `Fc1ccc(Nc2ccc3c(N4CCOCC4)nncc3n2)c(F)c1`
Result: 4

Problem: GET /values?readout=IC50&item= `Cc1n[nH]cc1-c1nncc2nc(Nc3ccc(F)cc3F)ccc12`
Result: 1.1

Problem: GET /values?readout=IC50&item= `Cc1ccccc1-c1nncc2nc(Nc3ccc(F)cc3F)ccc12`
Result: 0.5

Problem: GET /values?readout=IC50&item= `Cc1cc(S(C)(=O)=O)ccc1-c1nncc2nc(Oc3ccc(F)cc3F)ccc12`
Result: 0.7

Problem: GET /values?readout=IC50&item= `Cc1ccc(C(N)=O)cc1-c1nncc2nc(Oc3ccc(F)cc3F)ccc12`
Result: 0.3

Problem: GET /values?readout=IC50&item= `Cc1ccccc1-c1nncc2nc(Oc3ccc(F)cc3F)ccc12`
Result: 0.2

Problem: GET /values?readout=IC50&item= `Cn1cc(-c2nncc3nc(Nc4ccc(F)cc4F)ccc23)cn1`
Result: 5.6

Problem: GET /values?readout=IC50&item= `Cc1noc(C)c1-c1nncc2nc(Nc3ccc(F)cc3F)ccc12`
Result: 7.1

Problem: GET /values?readout=IC50&item= `Cc1ncccc1-c1nncc2nc(Nc3ccc(F)cc3F)ccc12`
Result: 1.2

All figures here come from patent US8772481B2.
